- TESTED SYSTEM: T1, IL-2 receptor βγ complex on pan T cells (human, UniProt P14784 27-551; P31785 23-369)
- T1 sequence (looked up) 1: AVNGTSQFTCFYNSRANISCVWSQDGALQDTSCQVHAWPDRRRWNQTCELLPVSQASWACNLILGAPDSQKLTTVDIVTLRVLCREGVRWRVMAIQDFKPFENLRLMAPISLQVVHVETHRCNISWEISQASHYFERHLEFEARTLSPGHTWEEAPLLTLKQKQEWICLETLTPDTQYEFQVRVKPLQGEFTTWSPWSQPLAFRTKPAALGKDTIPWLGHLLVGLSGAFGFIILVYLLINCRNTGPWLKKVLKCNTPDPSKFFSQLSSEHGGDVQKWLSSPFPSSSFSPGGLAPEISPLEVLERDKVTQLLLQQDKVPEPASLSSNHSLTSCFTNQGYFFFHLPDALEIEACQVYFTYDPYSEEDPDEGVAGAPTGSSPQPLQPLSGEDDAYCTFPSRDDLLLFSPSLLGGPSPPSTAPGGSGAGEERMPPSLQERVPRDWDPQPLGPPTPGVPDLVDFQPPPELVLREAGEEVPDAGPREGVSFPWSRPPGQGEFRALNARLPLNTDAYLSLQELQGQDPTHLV
- T1 sequence (looked up) 2: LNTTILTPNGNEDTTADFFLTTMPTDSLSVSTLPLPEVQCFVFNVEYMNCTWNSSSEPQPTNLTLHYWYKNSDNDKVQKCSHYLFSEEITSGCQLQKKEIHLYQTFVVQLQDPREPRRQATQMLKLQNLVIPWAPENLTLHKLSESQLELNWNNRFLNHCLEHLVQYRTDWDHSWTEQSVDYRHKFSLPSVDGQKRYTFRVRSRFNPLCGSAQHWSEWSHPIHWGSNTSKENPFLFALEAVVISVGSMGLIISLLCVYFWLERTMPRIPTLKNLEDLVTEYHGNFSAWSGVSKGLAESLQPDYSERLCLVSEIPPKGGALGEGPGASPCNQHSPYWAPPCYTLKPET
- EXPERIMENTAL DETAILS: cell-based or functional assay
Primed or numbered codes have the meaning given here. [ ]: non-standard residue; d: D form. Ygp″ = O-(PEG8-amino)-tyrosine (O-(8x polyethylene glycol-amino)-tyrosine); Yn3″ = O-(PEG9-azido)-tyrosine (O-(9x polyethylene glycol-azido)-tyrosine); hSer = N[C@@H](CCO)C(=O)O; Nle = CCCC[C@H](N)C(=O)O
MEASURED ENDPOINT: Average EC50, pSTAT5 assay in pan T cells, MMP2 cleaved molecule (nM)
Numbers only; they are read as nM.

Lab book: Average EC50, pSTAT5 assay in pan T cells, MMP2 cleaved molecule of CMP-119, MMP2 cleaved (ligand, ends and bridges not checked; also: Lys23 side chain attached to cleavable peptide, MMP2-cleaved, remnant stays attached, cut site not given here) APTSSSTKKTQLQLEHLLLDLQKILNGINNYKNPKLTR[Nle]L[hSer][Yn3″]KF[Ygp″][Nle]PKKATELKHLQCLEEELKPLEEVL[hSer]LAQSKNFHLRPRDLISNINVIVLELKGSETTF[hSer]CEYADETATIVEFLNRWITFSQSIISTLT noted as 0.63
